Measured log10 of cAMP Rel EC50 (in the presence of 1% HSA), listed per entry.
# Assayed system: T1, human GIP receptor (human) (UniProt P48546)
# T1 sequence (looked up): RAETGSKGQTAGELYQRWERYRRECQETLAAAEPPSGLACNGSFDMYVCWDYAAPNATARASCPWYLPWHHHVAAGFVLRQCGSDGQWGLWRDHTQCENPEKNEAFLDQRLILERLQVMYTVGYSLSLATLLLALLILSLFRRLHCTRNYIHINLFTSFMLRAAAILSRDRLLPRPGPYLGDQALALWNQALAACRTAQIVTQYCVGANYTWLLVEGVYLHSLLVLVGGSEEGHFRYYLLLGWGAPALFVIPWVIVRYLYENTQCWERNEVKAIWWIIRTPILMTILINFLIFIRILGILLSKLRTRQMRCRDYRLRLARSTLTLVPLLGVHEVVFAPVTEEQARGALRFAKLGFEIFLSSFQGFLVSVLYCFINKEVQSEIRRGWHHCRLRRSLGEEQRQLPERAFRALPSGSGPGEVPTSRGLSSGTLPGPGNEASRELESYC
# Assay notes: cell-based or functional assay
Heads up, the numbers here are log10 of cAMP Rel EC50 (in the presence of 1% HSA) in nM units.

Below, 10 binders whose answers are already recorded.
[[record]]
binder = "YXQGTFTSDFSXXLDKKAQXAFIEYLLEGGPSSGAPPPGGX (C-terminal amide; lysine acylated with AEEA-γ-Glu-C18 diacid; synthetic construct; SITE 2: note = 2-Aminoisobutyric Acid; SITE 12: note = L-ornithine; SITE 13: note = alpha-methyl-leucine; SITE 17: note = Lysine is chemically modified through conjugation of the epsilon-amino group of the Lysine side chain with (2-[2-(2-Amino-ethoxy)-ethoxy]-acetyl)-(gamma-Glu)) [Example 261]"
recorded_number = 1.58

[[record]]
binder = "YXQGTXTSDXSIXLDKKAQXAFIEYLEEGGPSSGEPPPSGSEE (Lys acylated (γ-Glu)2-C18 diacid; non-natural residues; C-terminal amide; synthetic construct; SITE 2: note = 2-Aminoisobutyric Acid; SITE 6: note = alpha-methyl-2-fluoro-L-phenylalanine; SITE 10: note = 3-(4-Pyridyl)-L-alanine; SITE 13: note = alpha-methyl-leucine; SITE 17: note = Lysine is chemically modified through conjugation of the epsilon-amino group of the Lysine) [Example 630]"
recorded_number = 0.47

[[record]]
binder = "YXQGTXTSDXSILLDKKAQXAFIEYLEEGGPSSGAPPPSGSEE (acylated Lys (γGlu)2-C18 diacid; non-natural residues; C-terminal amide; synthetic construct; SITE 2: note = 2-Aminoisobutyric Acid; SITE 6: note = alpha-methyl-2-fluoro-L-phenylalanine; SITE 10: note = 3-(4-Pyridyl)-L-alanine; SITE 17: note = Lysine is chemically modified through conjugation of the epsilon-amino group of the Lysine side chain with (gamma-Glu)2-CO-(CH2)1) [Example 610]"
recorded_number = 0.85

[[record]]
binder = "YXQGTXTSDXXIXLDXKAQXEFIEXLIEGGPPSXEPPPSGSE (non-natural residues, acylated Lys (AEEA-γGlu-C18 diacid), C-terminal amide; synthetic construct; SITE 2: note = 2-Aminoisobutyric Acid; SITE 6: note = alpha-methyl-2-fluoro-L-phenylalanine; SITE 10: note = 3-(4-Pyridyl)-L-alanine; SITE 11: note = alpha-methyl-L-serine; SITE 13: note = alpha-methyl-leucine; SITE 16: note = L-ornithine; SITE 17: note = Lysine is chemically mo) [Example 1200]"
recorded_number = -0.05

[[record]]
binder = "YXQGTFTSDFSRXLDKKAQXAFIEYLLEXGPSSGAPPPGGS (synthetic construct; SITE 2: note = 2-Aminoisobutyric Acid; SITE 13: note = alpha-methyl-leucine; SITE 17: note = Lysine is chemically modified through conjugation of the epsilon-amino group of the Lysine side chain with (2-[2-(2-Amino-ethoxy)-ethoxy]-acetyl)-(gamma-Glu)-CO-(CH2) 18-CO2H; SITE 20: n) [Example 42]"
recorded_number = 1.51

[[record]]
binder = "YXQGTFTSDFSXXLDKKAQXAFIEYLLEAGPSSGHPPPSGH (non-natural residues; acylated Lys; C-terminal amide; synthetic construct; SITE 2: note = 2-Aminoisobutyric Acid; SITE 12: note = L-ornithine; SITE 13: note = alpha-methyl-leucine; SITE 17: note = Lysine is chemically modified through conjugation of the epsilon-amino group of the Lysine side chain with (2-[2-(2-Amino-ethoxy)-ethoxy]-acetyl)2-(gamma-Glu)) [Example 255]"
recorded_number = 1.34

[[record]]
binder = "YXQGTFTSDFSKXLDKKAQXAFIEYLLAGGPSSGEPPPSGG (synthetic construct; SITE 2: note = 2-Aminoisobutyric Acid; SITE 13: note = alpha-methyl-leucine; SITE 17: note = Lysine is chemically modified through conjugation of the epsilon-amino group of the Lysine side chain with (2-[2-(2-Amino-ethoxy)-ethoxy]-acetyl)-(gamma-Glu)-CO-(CH2) 18-CO2H; SITE 20: n) [Example 6]"
recorded_number = 1.67

[[record]]
binder = "YXQGTFTSDFSKXLDKKAQXAFIEYLLEGGPSSGAPPPGGS (synthetic construct; SITE 2: note = 2-Aminoisobutyric Acid; SITE 13: note = alpha-methyl-leucine; SITE 17: note = Lysine is chemically modified through conjugation of the epsilon-amino group of the Lysine side chain with (2-[2-(2-Amino-ethoxy)-ethoxy]-acetyl)-(gamma-Glu)-CO-(CH2) 18-CO2H; SITE 20: n) [Example 18]"
recorded_number = 1.78

[[record]]
binder = "YXQGTXTSDXSILLDKKAQXAFIEYLEEGGPSSGAPPPSGTEE (acylated Lys (γGlu)2-C18 diacid; non-natural residues; C-terminal amide; synthetic construct; SITE 2: note = 2-Aminoisobutyric Acid; SITE 6: note = alpha-methyl-2-fluoro-L-phenylalanine; SITE 10: note = 3-(4-Pyridyl)-L-alanine; SITE 17: note = Lysine is chemically modified through conjugation of the epsilon-amino group of the Lysine side chain with (gamma-Glu)2-CO-(CH2)1) [Example 609]"
recorded_number = 0.79

[[record]]
binder = "YXQGTXTSDXSIXLDKKAQXXFIEYLQEGGPSSGEPPPSGSEE (non-natural residues, lipidated Lys, C-terminal amide; synthetic construct; SITE 2: note = 2-Aminoisobutyric Acid; SITE 6: note = alpha-methyl-2-fluoro-L-phenylalanine; SITE 10: note = 3-(4-Pyridyl)-L-alanine; SITE 13: note = alpha-methyl-leucine; SITE 17: note = Lysine is chemically modified through conjugation of the epsilon-amino group of the Lysine) [Example 639]"
recorded_number = 0.31


So for YXQGTFTSDFSXXLDKKAQXAFIEWLLEXGSSSGAPPPSGT (Aib, Orn, αMeL, acylated K, C-terminal amide; synthetic construct; SITE 2: note = 2-Aminoisobutyric Acid; SITE 12: note = L-ornithine; SITE 13: note = alpha-methyl-leucine; SITE 17: note = Lysine is chemically modified through conjugation of the epsilon-amino group of the Lysine side chain with (2-[2-(2-Amino-ethoxy)-ethoxy]-acetyl)-(gamma-Glu)) [Example 264] , the logged log10 of cAMP Rel EC50 (in the presence of 1% HSA) turned out to be 1.09

So for YXQGTFTSDFSXXLDKKAQXAFIEYLLEXGHSSGAPPPSGE (non-natural residues; lipidated Lys AEEA-γGlu-C18 diacid; C-term amide; synthetic construct; SITE 2: note = 2-Aminoisobutyric Acid; SITE 12: note = L-ornithine; SITE 13: note = alpha-methyl-leucine; SITE 17: note = Lysine is chemically modified through conjugation of the epsilon-amino group of the Lysine side chain with (2-[2-(2-Amino-ethoxy)-ethoxy]-acetyl)-(gamma-Glu)) [Example 247] , the logged log10 of cAMP Rel EC50 (in the presence of 1% HSA) turned out to be 1.11

So for YXQGTFTSDFSKXLDKKAQXAFIEWLLEGGPSSGAPPPSEG (synthetic construct; SITE 2: note = 2-Aminoisobutyric Acid; SITE 13: note = alpha-methyl-leucine; SITE 17: note = Lysine is chemically modified through conjugation of the epsilon-amino group of the Lysine side chain with (2-[2-(2-Amino-ethoxy)-ethoxy]-acetyl)-(gamma-Glu)-CO-(CH2) 18-CO2H; SITE 20: n) [Example 37] , the logged log10 of cAMP Rel EC50 (in the presence of 1% HSA) turned out to be 1.75

So for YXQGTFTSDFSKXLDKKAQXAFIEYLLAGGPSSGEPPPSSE (synthetic construct; SITE 2: note = 2-Aminoisobutyric Acid; SITE 13: note = alpha-methyl-leucine; SITE 17: note = Lysine is chemically modified through conjugation of the epsilon-amino group of the Lysine side chain with (2-[2-(2-Amino-ethoxy)-ethoxy]-acetyl)-(gamma-Glu)-CO-(CH2) 18-CO2H; SITE 20: n) [Example 3] , the logged log10 of cAMP Rel EC50 (in the presence of 1% HSA) turned out to be 1.68
